# Test system: rodent lifetime carcinogenesis bioassay, tumor incidence TD50
# Procedure Summary: carcinogenic potency in animals, long-term in vivo studies, CPDB compilation (AID 1745844)
# Test Parameters: rat; strain Fischer 344; males; inhaled; site: liver; lesion: hepatocellular carcinoma; dosed 101 weeks; study length 104 weeks
Assay Readout: TD50 (mg/kg/day)

Molecule	Test Result
CC1CO1 (stereo unspecified)	2960

---

# Tested on: rodent lifetime carcinogenesis bioassay, tumor incidence TD50
# Procedure Summary: carcinogenic potency in animals, long-term in vivo studies, CPDB compilation (AID 1745844)
# Test Parameters: mouse; strain C57BL/6N; males; in feed; site: liver; lesion: hepatocellular carcinoma; dosed 78 weeks; study length 78 weeks

Molecule	TD50
CC(C)(Oc1ccc(C2CC2(Cl)Cl)cc1)C(=O)O (stereo unspecified)	12.3 mg/kg/day

---

# System: rodent lifetime carcinogenesis bioassay, tumor incidence TD50
# Procedure Summary: carcinogenic potency in animals, long-term in vivo studies, CPDB compilation (AID 1745844)
# Test Parameters: mouse; strain Swiss albino; females; in drinking water; site: lung; lesion: several types; types named in the paper; dosed 97 weeks; study length 102 weeks
Assay Readout: TD50

Molecule	Test Result
CN(N)C=O	0.745 mg/kg/day

---

# System: rodent lifetime carcinogenesis bioassay, tumor incidence TD50
# Procedure Summary: carcinogenic potency in animals, long-term in vivo studies, CPDB compilation (AID 1745844)
# Test Parameters: rat; strain Fischer 344; females; by gavage; site: clitoral gland; lesion: adenoma, NOS + squamous-cell carcinoma; dosed 103 weeks; study length 104 weeks

Molecule	Unit Text	TD50
C=CC1CC=CCC1 (stereo unspecified)	mg/kg/day	580

---

# System: rodent lifetime carcinogenesis bioassay, tumor incidence TD50
# Procedure Summary: carcinogenic potency in animals, long-term in vivo studies, CPDB compilation (AID 1745844)
# Test Parameters: mouse; strain B6C3F1; females; in feed; site: lung; lesion: carcinoma; dosed 80 weeks; study length 90 weeks

Molecule	TD50 (mg/kg/day)
Cc1c([N+](=O)[O-])c(C)c([N+](=O)[O-])c(C(C)(C)C)c1[N+](=O)[O-]	6650

---

# Test system: rodent lifetime carcinogenesis bioassay, tumor incidence TD50
# Procedure Summary: carcinogenic potency in animals, long-term in vivo studies, CPDB compilation (AID 1745844)
# Test Parameters: mouse; strain B6C3F1; females; inhaled; site: subcutaneous tissue; lesion: sarcoma; dosed 104 weeks; study length 104 weeks

Molecule	TD50
C=CC(=C)Cl	28.9 mg/kg/day

---

# Tested on: rodent lifetime carcinogenesis bioassay, tumor incidence TD50
# Procedure Summary: carcinogenic potency in animals, long-term in vivo studies, CPDB compilation (AID 1745844)
# Test Parameters: mouse; strain CDF1; females; in feed; site: blood vessels; lesion: hemangioendothelial sarcoma; dosed 84 weeks; study length 84 weeks

Molecule	Experimental System	TD50
Cc1cc2c(nc1N)[nH]c1ccccc12	rodent lifetime carcinogenesis bioassay, tumor incidence TD50	38.6 mg/kg/day

---

# Test system: rodent lifetime carcinogenesis bioassay, tumor incidence TD50
# Procedure Summary: carcinogenic potency in animals, long-term in vivo studies, CPDB compilation (AID 1745844)
# Test Parameters: rat; strain Fischer 344; males; by gavage; site: liver; lesion: hemangiosarcoma; dosed 30 weeks; study length 65 weeks

Molecule	TD50
CN(C)N=O	0.822 mg/kg/day

---

# Test system: rodent lifetime carcinogenesis bioassay, tumor incidence TD50
# Procedure Summary: carcinogenic potency in animals, long-term in vivo studies, CPDB compilation (AID 1745844)
# Test Parameters: rat; strain Fischer 344; males; in feed; site: thyroid gland; lesion: follicular-cell carcinoma; dosed 104 weeks; study length 105 weeks
Assay Readout: TD50 (mg/kg/day)

Molecule	Test Result
OCC(CO)(CBr)CBr	1110

---

# System: rodent lifetime carcinogenesis bioassay, tumor incidence TD50
# Procedure Summary: carcinogenic potency in animals, long-term in vivo studies, CPDB compilation (AID 1745844)
# Test Parameters: mouse; strain Swiss albino; females; in drinking water; site: blood vessels; lesion: angioma; dosed 112 weeks; study length 112 weeks

Molecule	TD50 (mg/kg/day)
NNc1ccccc1	147

---

# System: rodent lifetime carcinogenesis bioassay, tumor incidence TD50
# Procedure Summary: carcinogenic potency in animals, long-term in vivo studies, CPDB compilation (AID 1745844)
# Test Parameters: mouse; strain B6C3F1; females; in feed; site: liver; lesion: hepatocellular carcinoma; dosed 103 weeks; study length 105 weeks
The source made the active and inactive calls. How the calls were made is not given here.
Outcome codes: 1 (yes) (active), 0 (no) (inactive)

Compound	Category
Nc1cccc2c(N)cccc12	1 (yes)
N=C1C=CC(=C(c2ccc(N)cc2)c2ccc(N)cc2)C=C1	1 (yes)
CCCCC(CC)COC(=O)CCCCC(=O)OCC(CC)CCCC (centres undefined)	1 (yes)
Cc1c(N)cccc1N	0 (no)

---

# Tested on: rodent lifetime carcinogenesis bioassay, tumor incidence TD50
# Procedure Summary: carcinogenic potency in animals, long-term in vivo studies, CPDB compilation (AID 1745844)
# Test Parameters: rat; strain Fischer 344; males; in feed; site: testis; lesion: interstitial-cell adenoma, bilateral + interstitial-cell adenoma; dosed 99 weeks; study length 103 weeks
Assay Readout: TD50 (mg/kg/day)

Molecule	Assay Readout	Unit Text	Test Result
CCC1(c2ccccc2)C(=O)NCNC1=O	TD50	mg/kg/day	8.15

---

# Test system: rodent lifetime carcinogenesis bioassay, tumor incidence TD50
# Procedure Summary: carcinogenic potency in animals, long-term in vivo studies, CPDB compilation (AID 1745844)
# Test Parameters: rat; strain Charles River CD (Sprague-Dawley); females; in feed; site: kidney; lesion: tubule carcinoma; dosed 104 weeks; study length 104 weeks

Compound	TD50 [mg/kg/day]
O=C1C2CC=CCC2C(=O)N1SC(Cl)(Cl)Cl (stereo unspecified)	17900

---

# System: rodent lifetime carcinogenesis bioassay, tumor incidence TD50
# Procedure Summary: carcinogenic potency in animals, long-term in vivo studies, CPDB compilation (AID 1745844)
# Test Parameters: rat; strain Sprague-Dawley; females; by gavage; site: liver; lesion: angioma; dosed 52 weeks; study length 127 weeks

Molecule	TD50
C=CCl	207 mg/kg/day

---

# Tested on: rodent lifetime carcinogenesis bioassay, tumor incidence TD50
# Procedure Summary: carcinogenic potency in animals, long-term in vivo studies, CPDB compilation (AID 1745844)
# Test Parameters: rat; strain Fischer 344; females; in feed; site: forestomach; lesion: squamous-cell papilloma; dosed 103 weeks; study length 104 weeks

Molecule	TD50 (mg/kg/day)
COc1ccccc1[N+](=O)[O-]	3270

---

# TD50 annotations
# Test system: rodent lifetime carcinogenesis bioassay, tumor incidence TD50
# Procedure Summary: carcinogenic potency in animals, long-term in vivo studies, CPDB compilation (AID 1745844)
# Test Parameters: rat; strain Fischer 344; females; in feed; site: liver; lesion: hepatocellular adenoma + hepatocellular carcinoma + neoplastic nodule; dosed 103 weeks; study length 104 weeks
Assay Readout: TD50 (mg/kg/day)

Molecule	Assay Readout	Unit Text	Test Result
NC(=O)NN=Cc1ccc([N+](=O)[O-])o1	TD50	mg/kg/day	253
CNc1ccc(N(CCO)CCO)cc1[N+](=O)[O-]	TD50	mg/kg/day	3310
CC[C@H]1OC(=O)[C@H](C)[C@@H](O[C@H]2C[C@@](C)(OC)[C@@H](O)[C@H](C)O2)[C@H](C)[C@@H](O[C@@H]2O[C@H](C)C[C@H](N(C)C)[C@H]2O)[C@](C)(O)C[C@@H](C)C(=O)[C@H](C)[C@@H](O)[C@]1(C)O	TD50	mg/kg/day	5850
O=[N+]([O-])c1cc(N(CCO)CCO)ccc1NCCO	TD50	mg/kg/day	8150
Cc1cc(N=Nc2c(O)ccc3ccccc23)c(S(=O)(=O)O)cc1Cl	TD50	mg/kg/day	1140
Cc1ccc(N=Nc2c(O)ccc3ccccc23)c([N+](=O)[O-])c1	TD50	mg/kg/day	5240
CCCCCCCC/C=C/CCCCCCCC(=O)OCCOCC(OCCO)C1OCC(OCCO)C1OCCO (stereo not drawn)	TD50	mg/kg/day	15800
Brc1c(Br)c(Br)c(Oc2c(Br)c(Br)c(Br)c(Br)c2Br)c(Br)c1Br	TD50	mg/kg/day	6580
Oc1ccc2ccccc2c1N=Nc1ccccc1	TD50	mg/kg/day	86.5
N=C1C=CC(=C(c2ccc(N)cc2)c2ccc(N)cc2)C=C1	TD50	mg/kg/day	189
CC(=O)Nc1ccc(N=Nc2cc(C)ccc2O)cc1	TD50	mg/kg/day	46800
O=P(OCC(Br)CBr)(OCC(Br)CBr)OCC(Br)CBr (stereo not drawn)	TD50	mg/kg/day	2820
Clc1nc(Cl)nc(Nc2ccccc2Cl)n1	TD50	mg/kg/day	1050

---

# Test system: rodent lifetime carcinogenesis bioassay, tumor incidence TD50
# Procedure Summary: carcinogenic potency in animals, long-term in vivo studies, CPDB compilation (AID 1745844)
# Test Parameters: mouse; strain B6C3F1; males; in feed; site: lung; lesion: alveolar/bronchiolar adenoma + alveolar/bronchiolar carcinoma; dosed 103 weeks; study length 104 weeks
Below is a list of entries, each paired with its recorded TD50 value.

Compound	Unit Text	TD50
O=C(O)c1ccc([N+](=O)[O-])cc1	mg/kg/day	4350
CCCCC(CC)COC(=O)CCCCC(=O)OCC(CC)CCCC (centres undefined)	mg/kg/day	11700
Cc1noc(NS(=O)(=O)c2ccc(N)cc2)c1C	mg/kg/day	49500
CCn1cc(C(=O)O)c(=O)c2ccc(C)nc21	mg/kg/day	4600
Cc1ccc(N=Nc2c(O)ccc3ccccc23)c([N+](=O)[O-])c1	mg/kg/day	36900
Nc1c(Br)cc(Br)c2c1C(=O)c1ccccc1C2=O	mg/kg/day	817
Oc1ccc(Cl)cc1Cl	mg/kg/day	13300
Cc1cc(N=Nc2c(O)ccc3ccccc23)c(S(=O)(=O)O)cc1Cl	mg/kg/day	5390
O=P(OCC(Br)CBr)(OCC(Br)CBr)OCC(Br)CBr (centres undefined)	mg/kg/day	211
NC(=O)NN=Cc1ccc([N+](=O)[O-])o1	mg/kg/day	1380
Cc1ccc(S(=O)(=O)NC(=O)NN2CCCCCC2)cc1	mg/kg/day	24600
CNC[C@H](O)c1cccc(O)c1	mg/kg/day	2130
CC(=O)Nc1ccc(N=Nc2cc(C)ccc2O)cc1	mg/kg/day	2440
OC[C@@H](O)[C@@H](O)[C@H](O)[C@H](O)CO	mg/kg/day	98100
